# Assay Explanation: qHTS profiling of the MIPE4 collection as inhibitors of Plasmodium falciparum (HB3) proliferation (AID 743347);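 also: plate controls were DMSO vehicle wells for no effect and artemisinin wells for full effect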
# Recorded Conditions: P. falciparum HB3 in erythrocytes, SYBR Green DNA, 72 h; at 28.5 µM (top of the series) unless noted
Readout Kind: growth, % of control (%)
Give the value, in units of %, as a plain number.

Check out these entries, answers already filled in.
Compound: CC(C)(C)c1nc2c3cc[nH]c(=O)c3c3cc(F)ccc3c2[nH]1
growth, % of control, %: 58.6
--
Compound: COc1cc(OC)cc(-c2ccc3ncc4ccc(=O)n(-c5ccc(N6CCNCC6)c(C(F)(F)F)c5)c4c3c2)c1
growth, % of control, %: 9.36

// next item, growth, % of control requested
Give its growth, % of control value. Item: CC(=O)C1=C(O)C=C2Oc3c(C(C)=O)c(O)c(C)c(O)c3C2(C)C1=O (stereo not drawn)
99

----------
# Assay Explanation: Quantitative High-Throughput drug screen in 47 multiple myeloma cell lines against the NCATS MIPE library collection: MOLP8_DSMZ cell viability assay (AID 1918977); also: nearly all actives have a fitted effect of over 45% in size
# Recorded Conditions: MOLP8 myeloma viability, CellTiter-Glo ATP luminescence, 48 h; series mostly up to 45.8 µM
Inconclusive results are not listed. Active and inactive are the calls of the source. Calls follow the shape of the dose curve; as a rule, active = well fitted cell-killing curve with a large enough effect; inconclusive = small, poorly fitted or top-dose-only effect, or effect the other way; inactive = no such curve, though single readings can be large or run the other way.
Return exactly one item of T (active), F (inactive)

Illustrative cases are given below, each with its answer.
Compound: COC1=C2C[C@@H](C)C[C@H](OC)[C@@H](O)[C@@H](C)C=C(C)[C@H](OC(N)=O)[C@@H](OC)C=CC=C(C)C(=O)NC(=CC1=O)C2=O
Assigned Category: T
--
Compound: O=c1[nH]c(=O)n([C@H]2C[C@@H](O)[C@@H](CO)O2)cc1C=CBr
Assigned Category: F
--
Compound: O=C(O)C=Cc1ccc(Cn2ccnc2)cc1
Assigned Category: F

Short answer needed: outcome of this test for CCCNC(=O)[C@H]1O[C@H]1C(=O)N[C@H](C(=O)N1CCC[C@@H]1C(=O)OC)C(C)CC (some centres undefined) ?
T

Let us now turn to CN(C)CC(=O)N1CCC(c2ccc(NC(=O)c3ncc(C#N)[nH]3)c(C3=CCCCC3)c2)CC1
T

Let us now turn to Cn1cc(CNCC2CCN(c3ncc(C(=O)NO)cn3)CC2)c2ccccc21
T

Let us now turn to O=[N+]([O-])c1cn2c(n1)OC[C@@H](OCc1ccc(OC(F)(F)F)cc1)C2
F

Let us now turn to CC(C)(O)Cn1c(NC(=O)c2ccc(-c3cn[nH]c3)s2)nc2cc(CN3CCOCC3)ccc21
T

Let us now turn to N#CNC(=NCCCCCCOc1ccc(Cl)cc1)Nc1ccncc1
T

Let us now turn to O=C(C=CC#Cc1cccc(NS(=O)(=O)c2ccccc2)c1)NO
T

Let us now turn to c1ccc2c(Oc3nc(Nc4ccc(N5CCOCC5)cc4)c4ncn(C5CCCCC5)c4n3)cccc2c1
F

Let us now turn to COc1cc(C)c(Sc2cnc(NC(=O)c3ccc(CNC(C)C(C)(C)C)cc3)s2)cc1C(=O)N1CCN(C(C)=O)CC1 (centres undefined)
T

Let us now turn to CCCCC(=O)O[C@]1(C(=O)CO)[C@@H](C)C[C@H]2[C@@H]3CCC4=CC(=O)C=C[C@]4(C)[C@@]3(F)[C@@H](O)C[C@@]21C
T
